Molecular target: Recombinant human ATX (Homo sapiens)
Construct: made in house; host or cells: human embryonic kidney (HEK) cells
Assay: Assessing ATX inhibition: released choline, Amplex Red fluorescence
Format: biochemical
Settings: ATX 10 nM, LPC 18:1 10 μM, pre-incubated with ATX at 37° C. for 20 minutes; Table 1, exemplified compounds; read-out: IC50
Here the recorded IC50 is given for each entry.
The answer is to be given in µM; state only the numeric part.

Consider the reported IC50 for these compounds:
- item-smiles: "O=C(O)CCCCC(=O)NC1CCN(C(=O)OCc2cc(Cl)cc(Cl)c2)CC1"
  reported-property: "IC50"
  reported: 0.543
- item-smiles: "O=C(CCCc1c[nH]nn1)NC1CCN(C(=O)CCc2cc(Cl)cc(Cl)c2)CC1"
  reported-property: "IC50"
  reported: 0.119

// below: IC50 requested for another compound
Please fill in: IC50 reported for O=C(NCCN1CCN(C(=O)OCc2cc(Cl)cc(Cl)c2)CC1)c1c[nH]c(=O)o1 = 0.375
